Provenance of the data: the RNAGym collection of RNA variant scans (doi:10.1073/pnas.2313332121)

B1: TPR t1 (parent)
chain: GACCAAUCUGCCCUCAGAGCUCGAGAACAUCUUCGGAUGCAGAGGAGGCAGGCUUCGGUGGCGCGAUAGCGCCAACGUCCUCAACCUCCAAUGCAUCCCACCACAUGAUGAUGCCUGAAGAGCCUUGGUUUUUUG

- Variants of: B1
- experimental.protocol: polymerase ribozyme fitness, log enrichment relative to wild type (log ratio); higher = more active; in vitro selection for triplet polymerase activity
Could you label it 1 if measured polymerase ribozyme fitness (log ratio) is -3 or higher, and 0 otherwise?

- variant.spec: "C4G C15U"
  group.label: 1
- variant.spec: "U21A C72G C86G"
  group.label: 1
- variant.spec: "A41U G60U"
  group.label: 1
- variant.spec: "C13A A27C C70U"
  group.label: 0
- variant.spec: "A6U C12U G48A C56A G65U A95U C97G C101A U112G C114U"
  group.label: 0
- variant.spec: "A5U C31U G110C"
  group.label: 0
- variant.spec: "C85A A100C"
  group.label: 1
- variant.spec: "A16U G47A C56G C86U C101A A121C"
  group.label: 1
- variant.spec: "U78A C104U C115U"
  group.label: 1
- variant.spec: "C31U C62U"
  group.label: 0
- variant.spec: "C4G A18C A46G A83U G128A"
  group.label: 0
- variant.spec: "G47U G58C C82U C86U"
  group.label: 1
- variant.spec: "C53A A90U G117C"
  group.label: 0
- variant.spec: "G44C G69U A121C"
  group.label: 1
- variant.spec: "C70U U78C"
  group.label: 1
- variant.spec: "C3G U7A C11A C40A C73U C85G"
  group.label: 0
- variant.spec: "G63A A119U G135U"
  group.label: 1
- variant.spec: "A43C G45U"
  group.label: 0
- variant.spec: "G52U C56U"
  group.label: 1
- variant.spec: "C53A G58A C89G C102U A103U C123G"
  group.label: 0
- variant.spec: "U14G G48U G60U"
  group.label: 1
- variant.spec: "C12G C56G C70G"
  group.label: 0
- variant.spec: "C31G C56A G60U U109A"
  group.label: 0
- variant.spec: "A2C C13G C15U C72U"
  group.label: 0
- variant.spec: "G48A G113A"
  group.label: 1
- variant.spec: "C4G U7G C8G G71A C98G A103C C114A G122U"
  group.label: 0
- variant.spec: "U32G C62G G120U"
  group.label: 0
- variant.spec: "C88U U129C"
  group.label: 1
- variant.spec: "A5U C72G G117A"
  group.label: 1
- variant.spec: "A5C C12A A27U"
  group.label: 0
- variant.spec: "G61A C88G C104U C123G"
  group.label: 1
- variant.spec: "U106G U112G"
  group.label: 1
- variant.spec: "U14G C56U C70A"
  group.label: 0
- variant.spec: "G57U C72G C115A U132C G135C"
  group.label: 0
- variant.spec: "G47U C80G U87A C101U C123A G127A"
  group.label: 0
- variant.spec: "C4U C49U C85U C89G"
  group.label: 1
- variant.spec: "C8U G42A C88U"
  group.label: 1
- variant.spec: "A111C C123G"
  group.label: 1
- variant.spec: "G39C C86U"
  group.label: 1
- variant.spec: "C49U U106G"
  group.label: 1
- variant.spec: "G47A C114A C123G U125A"
  group.label: 1
- variant.spec: "C28G C70A"
  group.label: 0
- variant.spec: "C79G A83G C89G"
  group.label: 0
- variant.spec: "G61A G69C U116C"
  group.label: 0
- variant.spec: "G10A C13G A27U C72U A105U"
  group.label: 0
- variant.spec: "C64G U81G C101A G113A"
  group.label: 0
